target: T1, ALK-ECD-myc/his tag protein (human, UniProt Q9UM73 19-1038); assay: ELISA, ALK-ECD-myc/his coated at 10 μg/mL, anti-human IgG-HRP
T1 construct: Expressed in 293/293F cells and purified from conditioned medium; biotin labelled for the soluble panning; also called recombinant ALK-ECD-myc/his tag; ALK-ECD protein; not shown: Myc/His tag
T1 sequence (Q9UM73 other isoform, or with tags, fused parts or gaps): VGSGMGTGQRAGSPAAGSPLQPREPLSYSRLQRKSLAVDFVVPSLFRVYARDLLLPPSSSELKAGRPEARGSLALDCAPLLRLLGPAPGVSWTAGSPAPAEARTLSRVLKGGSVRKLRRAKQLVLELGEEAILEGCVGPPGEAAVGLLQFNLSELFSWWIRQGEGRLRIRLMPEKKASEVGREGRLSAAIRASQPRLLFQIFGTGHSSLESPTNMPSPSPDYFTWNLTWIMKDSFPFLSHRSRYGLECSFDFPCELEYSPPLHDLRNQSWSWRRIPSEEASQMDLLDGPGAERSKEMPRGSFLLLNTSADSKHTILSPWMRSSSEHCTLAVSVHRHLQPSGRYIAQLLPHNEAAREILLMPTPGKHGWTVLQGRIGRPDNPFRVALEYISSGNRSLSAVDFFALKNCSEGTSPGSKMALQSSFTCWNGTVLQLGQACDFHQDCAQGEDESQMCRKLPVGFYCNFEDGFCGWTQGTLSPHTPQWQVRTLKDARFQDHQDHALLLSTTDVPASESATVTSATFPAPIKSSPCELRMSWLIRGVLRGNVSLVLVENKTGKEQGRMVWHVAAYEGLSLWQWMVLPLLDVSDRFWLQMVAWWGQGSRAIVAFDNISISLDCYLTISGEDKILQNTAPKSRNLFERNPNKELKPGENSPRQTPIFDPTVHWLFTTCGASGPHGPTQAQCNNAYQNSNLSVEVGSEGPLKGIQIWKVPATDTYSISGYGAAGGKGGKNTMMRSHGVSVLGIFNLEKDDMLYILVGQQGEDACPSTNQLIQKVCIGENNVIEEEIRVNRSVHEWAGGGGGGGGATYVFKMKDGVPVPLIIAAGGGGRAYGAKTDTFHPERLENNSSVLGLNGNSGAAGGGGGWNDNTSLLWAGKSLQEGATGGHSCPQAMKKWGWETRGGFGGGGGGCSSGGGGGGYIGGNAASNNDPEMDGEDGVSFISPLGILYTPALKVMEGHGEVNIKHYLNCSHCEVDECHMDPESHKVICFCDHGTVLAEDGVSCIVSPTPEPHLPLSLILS
Value kind: binding result

Binder: fully human anti-ALK IgG B6 (antibody, V domains shown, Full length fully human IgG) VH: EVQLLESGGGLVQPGGSLRLSCAASGFTFSFYTMFWVRQAPGKGLEWVSSIRPSGGLTGYADSVKGRFTISRDNSKNTLYLQMNSLRAEDTAVYYCARGMQRGLDYWGQGTLVTVSS VL: QSALSQPPSASGTPGQRVSISCSGSSSNIGSYYVYWYQHLPGTAPKLLIYRNNQRPSGVPDRFSGSKSGTSASLAISGLRSEDESDYYCAAWDDRLSAWVFGGGTKLTVLG
Value kind: binding result
Assay result: binds
--
Binder: fully human anti-ALK IgG E5 (antibody, V domains shown, Full length fully human IgG) VH: EVQLLESGGGLVQPGGSLRLSCAASGFTFSLYPMMWVRQAPGKGLEWVSVISSSGGFTFYADSVKGRFTISRDNSKNTLYLQMNSLRAEDTAVYYCARSLAYIFDAFDIWGQGTMVTVSS VL: DIQMTQSPGTLSLSPGERATLYCRASQSLYSSYLAWYQQRPGQAPRLLIYDTSSRATGIPDRFSGSGSGTDFTLTISRLEPEDFAVYYCQQYGTSLRTFGQGTKVEIK
Value kind: binding result
Assay result: binds
--
Binder: fully human anti-ALK IgG D5 (antibody, V domains shown, Full length fully human IgG) VH: EVQLLESGGGLVQPGGSLRLSCAASGFTFSNYRMSWVRQAPGKGLEWVSWIYSSGGMTTYADSVKGRFTISRDNSKNTLYLQMNSLRAEDTAVYYCARERSKNYDTSVPVGFDIWGQGTMVTVSS VL: DIQMTQSPATLSLSPGERATLSCRASQSISSFLAWYQHKPGQAPRLLIYDASNRATGIPARFSGSGSGTDFTLTISSLEPEDFAVYYCQQRTTWPPALTFGGGTKVEIK
Value kind: binding result
Assay result: binds
